Ref: PubChem BioAssay (NCATS)

protocol.summary: qHTS assay for measurement of the activity of small molecule inhibitors on Zika virus induced Caspase-3 activity in human iPSC derived neural progenitor cells (hNPCs) (AID 1224857); note: nearly all actives have a fitted effect of over 65% in size
condition: hNPCs ZIKV-induced caspase-3/7, Caspase-Glo luminescence, 6 h; series mostly up to 45.7 µM
Results filed as inconclusive are left out. Activity calls are given as the source filed them. Calls come from the whole dose curve; as a rule, active = well fitted inhibition curve with a large enough effect; inconclusive = small, poorly fitted or top-dose-only effect; inactive = no such curve, though single readings can be large or run the other way.
Log the outcome using a class from 1.0 for active, 0.0 for inactive

Worked set:
{"columns": ["compound", "category"],
 "data": [
  ["Cc1cccc(-c2[nH]c(C(C)(C)C)nc2-c2ccc3nccnc3c2)n1", 0.0],
  ["Cc1ccnc(NS(=O)(=O)c2ccc(NC(=O)Nc3ccc(S(=O)(=O)Nc4nccc(C)n4)cc3)cc2)n1", 0.0],
  ["NC(=O)c1ccc(I)c([N+](=O)[O-])c1", 0.0],
  ["Cn1c(=O)c(F)c(Nc2ccc(I)cc2F)c2c(=O)n(C[C@@H](O)CO)cnc21", 0.0],
  ["CNC[C@H](O)c1cccc(O)c1", 0.0]
]}

Please indicate how the test categorized Cc1csc(NC(=O)c2sc3nc4c(c(C(F)(F)F)c3c2N)CCC4)n1 .
1.0

// return assay outcome for CCOc1ccn(-c2ccc(F)cc2)c(=O)c1C(=O)Nc1ccc(Oc2ccnc(N)c2Cl)c(F)c1
0.0

====

protocol.summary: qHTS drug screen for cell cycle checkpoint inhibitors in PARPi-resistant BRCA-mutant ovarian cancer cell lines. (AID 1963452)
condition: PEO1/OlaR viability, CellTiter-Glo luminescence, 96 h; measured here: PEO1 parental Z-AUC; stronger effect = lower value
# note: exactly 1 is not below, so it is n; use y for Z-AUC strictly under it

{"columns": ["compound", "category"],
 "data": [
  ["Nc1nccc(-c2ccc3noc(-c4ccc(Cl)cc4)c3c2)n1", "y"],
  ["NC(=O)c1ccc(-c2nc(-c3ccc4c(c3)OCO4)c(-c3ccccn3)[nH]2)cc1", "n"],
  ["Oc1ccc(C2CNCCc3c2cc(O)c(O)c3Cl)cc1 (stereo not given)", "n"]
]}

Could you please tell me whether Z-AUC recorded for CCC(=O)N[C@H]1CC[C@H](C(=O)N(C)c2ccc(-c3nc4ccccc4o3)cc2)C1 is less than 1?
y

Take the compound CN([C@@H](Cc1ccc(OS(=O)(=O)c2cccc3cnccc23)cc1)C(=O)N1CCN(c2ccccc2)CC1)S(=O)(=O)c1cccc2cnccc12 and say whether its Z-AUC is less than 1.
n

====

activity, percent of control values for the molecules below.
protocol.summary: qHTS profiling for inhibitors of Plasmodium falciparum (DD2) proliferation (AID 743323)
condition: lower = more inhibition; at 28.7 µM (top of the series) unless noted
Field: numeric (%). Do not append units.

{"columns": ["molecule", "result.value"],
 "data": [
  ["Cc1ccc(-n2nc(C(C)(C)C)cc2NC(=O)Nc2ccc(OCCN3CCOCC3)c3ccccc23)cc1", 14.4]
]}

Now consider the entry below.
State the recorded activity, percent of control for this entry: Cc1c(C)c2c(c(C)c1O)CCC(C)(COc1ccc(CC3SC(=O)NC3=O)cc1)O2 (centres undefined)
80

====

protocol.summary: Counterscreen qHTS for small molecule stabilizers of the endoplasmic reticulum resident proteome: GLuc-NoTag assay (AID 1508627)
condition: Gaussia luciferase NoTag secretion counterscreen, luminescence, thapsigargin 100 nM for final 4 h; series mostly up to 76.4 µM
Records with an inconclusive call do not appear. Active and inactive are the calls of the source. Calls follow the shape of the dose curve; as a rule, active = well fitted inhibition curve with a large enough effect; inconclusive = small, poorly fitted or top-dose-only effect; inactive = no such curve, though single readings can be large or run the other way.
A correct response names exactly one class from TRUE for active, FALSE for inactive

Worked cases, answers included:
{"columns": ["molecule", "category"],
 "data": [
  ["Nc1nc2c(ncn2COCCO)c(=O)[nH]1", "FALSE"],
  ["OC(CN1CCC(Cc2ccc(F)cc2)CC1)c1ccc(Cl)cc1 (stereo unspecified)", "TRUE"],
  ["Cc1ccccc1C(OCCN(C)C)c1ccccc1 (stereo unspecified)", "FALSE"],
  ["CCOC(=O)N1CCC(=C2c3ccc(Cl)cc3CCc3cccnc32)CC1", "TRUE"],
  ["Cc1[nH]c(=O)c(C#N)cc1-c1ccc2nccn2c1", "FALSE"]
]}

In this assay, the call recorded for Cc1ccc(N(CC2=NCCN2)c2cccc(O)c2)cc1 was what?
FALSE

Tell me the assay call for CCN(CC)CCCC(C)Nc1ccnc2cc(Cl)ccc12 (stereo unspecified) please.
FALSE

Which outcome was assigned to COc1ccc2nc(S(=O)Cc3ncc(C)c(OC)c3C)[nH]c2c1 (stereo unspecified) in this test?
FALSE

====

protocol.summary: Quantitative High-Throughput drug screen in 47 multiple myeloma cell lines against the NCATS MIPE library collection: JIM3_ECACC cell viability assay (AID 1918963; note: nearly all actives have a fitted effect of over 35% in size; note: potency is the fitted concentration of half-maximal effect)
condition: JIM3 myeloma viability, CellTiter-Glo ATP, 48 h; series mostly up to 45.8 µM
Results filed as inconclusive are left out. Active and inactive are the calls of the source. The call rests on the fitted dose curve; in most records, active means well fitted cell-killing curve with a large enough effect; inconclusive means small, poorly fitted or top-dose-only effect; inactive means no such curve, though single readings can be large or run the other way.
test.readout: Potency

{"columns": ["record.smiles", "Potency"],
 "data": [
  ["CCOc1cc(N2CCC(O)CC2)ccc1Nc1ncc2c(n1)N(C)c1ccccc1C(=O)N2C", "8.33 µM (active)"],
  ["NNCCc1ccccc1", "inactive"],
  ["CCn1c(-c2nonc2N)nc2cnc(Oc3cccc(NC(=O)c4ccc(OCCN5CCOCC5)cc4)c3)cc21", "20.9 µM (active)"],
  ["CC(C)(C)OC(=O)CN(Cc1ccc(Cl)cc1)Cc1ccc([N+](=O)[O-])s1", "16.6 µM (active)"],
  ["COc1nc(-c2ccc3c(c2)OCO3)n(-c2ccc(NC(=O)CSc3ccccc3)cc2)n1", "inactive"]
]}

What measured Potency goes with CNC[C@H](O)c1cccc(O)c1 ?
inactive

Endpoint output: Potency of CCCCNc1cc(C(=O)O)cc(S(N)(=O)=O)c1Oc1ccccc1 . Value?
inactive

Tell me the measured Potency of Cc1cc([C@@H](C)Nc2ccccc2C(=O)O)c2nc(N3CCOCC3)cc(=O)n2c1 , please.
13.6 µM (active)

Which Potency is reported for this compound? O=C(NOC[C@H](O)CO)c1ccc(F)c(F)c1Nc1ccc(I)cc1F
0.166 µM (active)

Requested field: Potency. Item: COCC(=O)NCC=Cc1ccc2ncnc(Nc3ccc(Oc4ccc(C)nc4)c(C)c3)c2c1
16.6 µM (active)

====

protocol.summary: qHTS drug screen for cell cycle checkpoint inhibitors in PARPi-resistant BRCA-mutant ovarian cancer cell lines. (AID 1963452)
condition: PEO1/OlaR viability, CellTiter-Glo luminescence, 96 h; measured here: PEO4 Z-AUC; stronger effect = lower value
test.readout: Z-AUC
Enter the number alone.

Below are worked cases with known answers.
{"columns": ["molecule", "Z-AUC"],
 "data": [
  ["CS(=O)(=O)Oc1ccc2c(NC(N)=O)c(C(=O)c3ccc(Cl)cc3Cl)oc2c1", 1.11],
  ["Cc1ccnc(NS(=O)(=O)c2ccc(NC(=O)Nc3ccc(S(=O)(=O)Nc4nccc(C)n4)cc3)cc2)n1", 0.813],
  ["CC(C)(Sc1ccc(CCN(CCCCC2CCCCC2)C(=O)NC2CCCCC2)cc1)C(=O)O", 1.25],
  ["CC(=O)Oc1ccccc1C(=O)O", 1.16],
  ["CN([C@@H](Cc1ccc(OS(=O)(=O)c2cccc3cnccc23)cc1)C(=O)N1CCN(c2ccccc2)CC1)S(=O)(=O)c1cccc2cnccc12", 1.7]
]}

Which value of Z-AUC has been reported for CNC(=O)c1ccccc1Sc1ccc2c(/C=C/c3ccccn3)n[nH]c2c1 in the records?
0.241

Give the measured Z-AUC of COc1cc(Nc2ncc3c(n2)-c2ccc(Cl)cc2C(c2c(F)cccc2OC)=NC3)ccc1C(=O)O .
-1.47

Reported Z-AUC, molecule CNC(=O)c1ccc(N2C(=S)N(c3ccc(C#N)c(C(F)(F)F)c3)C(=O)C2(C)C)cc1F : ____
0.909

// Z-AUC lookup, key: CC(C)OC(=O)C1=CN(C(=O)c2ccc(F)c(F)c2)CC(C)(C)c2c1[nH]c1ccccc21
0.385

Need Z-AUC of O=c1ncn2nc(Sc3ccc(F)cc3F)ccc2c1-c1c(Cl)cccc1Cl , thanks.
0.747

Tell me the measured Z-AUC of CCCCCCCc1ccc(CCc2cccc(O)c2C(=O)O)cc1 , please.
0.518

====

system: Protein phosphatase 1D (Homo sapiens)
protocol.summary: RapidFire Mass Spectrometry qHTS Assay for Modulators of WT P53-Induced Phosphatase 1 (WIP1) (AID 1347424);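 note: amount of dephosphorylated VEPPL-S-QETFS peptide product formed by WIP1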
condition: WIP1 dephosphorylation of phosphopeptide, RapidFire MS; series mostly up to 63 µM
Results filed as inconclusive are left out. Activity calls are given as the source filed them. The call rests on the fitted dose curve; in most records, active means well fitted inhibition curve with a large enough effect; inconclusive means small, poorly fitted or top-dose-only effect; inactive means no such curve, though single readings can be large or run the other way.
Mark one answer only. Choices: TRUE = active, FALSE = inactive

Reference set, count: 4
{"columns": ["molecule", "category"],
 "data": [
  ["CC(C)NCC(O)COc1ccc(COCCOC(C)C)cc1 (stereo not drawn)", "FALSE"],
  ["Cc1cnc(NC(=O)C2=C(O)c3ccccc3S(=O)(=O)N2C)s1", "FALSE"],
  ["C1COC(NC(C2CC2)C2CC2)=N1", "FALSE"],
  ["COc1ccc2nc(S(=O)Cc3ncc(C)c(OC)c3C)[nH]c2c1 (stereo not drawn)", "FALSE"]
]}

What did this assay record as the result for Clc1cccc(Cl)c1NC1=NCCN1 ?
FALSE

# lookup: test call for Cc1cc2c(C(C)C)c(O)c(O)c(C=O)c2c(O)c1-c1c(C)cc2c(C(C)C)c(O)c(O)c(C=O)c2c1O
TRUE
